# measuredTarget: T1, Processed stabilized hMPV PreF trimer (115BV) (human metapneumovirus, strain B2)
# T1 construct: also called Processed hMPV PreF trimer; processed PreF
# testMethodNotes: BLI, ratio to unprocessed PreF trimer
Lab note: anything with processed/unprocessed PreF trimer binding ratio at or over 0.3 counts as 1.0; the rest go in 0.0.

# binder, cat
data = [
    ("M4B03 (antibody, V domains shown, IgG) VH: QVQLVQSGAEVKKPGASVKVSCKASGYIFSNYRMHWVRQAPGQRLEWMGWITAGSGNTRYSEQFQGRVAFTSDTDATTVSMELSGLRFEDTAVYFCAREYNWNDAFPYWGQGTLVIVSS VL: SYVLTQPPSVSVAPGQTARIPCGGNNIGSKSVHWYQQKSGRAPVLVVYDDSDRPPGIPDRFSGSNSGNTATLTINKIEAGDEADYYCHVSDDNSDHVFFGGGTQLTVL", 1.0),
]

Q: Identify whether the reported processed/unprocessed PreF trimer binding ratio of the following binder is 0.3 or greater: M2D03 (antibody, V domains shown, IgG) VH: QVQLQESGPGLVAPSQTLSLICDVSGDSVTSGAHSWSWIRQHPVKGLEWIAYINYSGRTNYNPSLQSRLVISVDRSKNQFSLRLSSVTAADTAVYYCARANVVGYSGYYFDYWGQGTLVAVSS VL: DIQMTQSPSSLSASVGDRVTITCRASQSVGAYLNWYQQKPGKAPKLLIFAGSSLQTGVPSRFSGRGSRTEFTLTISNLQREDFATYYCQQSLGDFLTFGGGTKVEIK
Ans: 1.0

Q: Param item: M1A11 (antibody, V domains shown, IgG; also called MIA11) VH: QLQLQESGPGLVKPSETLSLTCTVSGDSISSSSFYWGWIRQPPGKGLEWIATIYYTGSTEYNPSLKSRISISVDTSMNQFSLRLRSVTAADTAVYYCARQEGSSWSNWFDPWGQGTLVTVSS VL: DIQMTQSPSSLSASVGDRVTITCRASQSISTYLNWYQQKPGKAPKLLIYVASSLQSGVPSRFSGSGSGTDFTLTISSLQPEDFATYYCQQGYSIPWTFGHGTKVEIK
Ans: 0.0

Q: Param item: M2D2 (antibody, V domains shown, IgG) VH: QVQLVQSGAEVKKPGASVKVSCKASGYNFDNYYMSWVRQAPGQGLEWLGIIDPSGGRISYAPKFQGRVTLTRDTSTSTVYMELRGLRFEDTALYYCARLEATHEGPWGQGTLVTVSS VL: QSVLTQPPSASGTPGQRVTISCSGSNSNIGSSTVNWYQQLPGTAPKLLIYSDNHRPSGVPDRFSGSRSGTSASLVISGLHSEDEADYYCGTWDDGLNGPYVFGTGTKVTVL
Ans: 1.0

Q: Param item: M2F01 (antibody, V domains shown, IgG) VH: QVQLVQSGAEVKKPGASVKVSCKASEDTFTNYYMHWVRQAPGQGLEWMGIINPSGGSTDYAQKFQGRVTMTRDTSTSTVYMELSSLRSEDTAMYYCARQGRTAACDYWGQGTLVTVSS VL: DIQMTQSPSSVSASVGDRVTITCRASQGIRSWLAWYQQKPGKAPKLLIYAASTLQSGVPSRFSGSGSGTDFTLTISSLQPEDFATYYCQQSNSFSLFTFGPGTRVDIK
Ans: 0.0
